experiment: Stability in PBS, RP-HPLC analysis; format: physicochemical; settings: pH 7.4, 22 °C, up to 48 h
quantity.kind: stability

molecule	quantity.kind	measured.value
CC[C@H](C)[C@H](NC(=O)[C@H](Cc1ccc(O)cc1)NC(=O)[C@@H]1CCCN1C(=O)[C@H](CCCNC(=N)NC(=O)NCCOCCOCCNC(=O)CCCCCN1/C(=C/C=C/C=C/C2=[N+](CCCCS(=O)(=O)[O-])c3ccccc3C2(C)C)C(C)(C)c2cc(S(=O)(=O)O)ccc21)NC(=O)[C@@H](N)CCCNC(=N)N)C(=O)N[C@@H](CC(C)C)C(=O)O [compound 17]	stability	excellent stabilities
CC[C@H](C)[C@H](NC(=O)[C@H](Cc1ccc(O)cc1)NC(=O)[C@@H]1CCCN1C(=O)[C@H](CCCNC(=N)N)NC(=O)[C@@H](N)CCCNC(=N)NC(=O)NCCOCCOCCNC(=O)CCCCCN1\C(=C/C=C/C=C/C2=[N+](CCCCS(=O)(=O)[O-])c3ccccc3C2(C)C)C(C)(C)c2ccccc21)C(=O)N[C@@H](CC(C)C)C(=O)O [compound 11]	stability	excellent stabilities
